Consider the following compounds and their measured half-life readings.
protocol: Half life in […] mouse at 30 mg/kg, po
Assay type: ADME, organism-based
Design: dose 30 mg/kg, route oral
test_settings: in vivo
The figure you give is taken to be in h; do not add the unit.

{"cpd_smiles": "COc1cnc(COc2cc(F)c(F)cc2C)cc1-c1cc2c([nH]1)CCNC2=O", "half-life (h)": 1.4}

Now take the following compound into account.
Reported half-life ( `COc1cnc(COc2ccc(F)c(F)c2)cc1-c1cc2c([nH]1)CCNC2=O` ) = 2.7

----------
As an illustration, consider measured pIC50 for compounds on Casein kinase I isoform gamma-2 (Homo sapiens).
Sequence (P78368 whole entry, canonical isoform): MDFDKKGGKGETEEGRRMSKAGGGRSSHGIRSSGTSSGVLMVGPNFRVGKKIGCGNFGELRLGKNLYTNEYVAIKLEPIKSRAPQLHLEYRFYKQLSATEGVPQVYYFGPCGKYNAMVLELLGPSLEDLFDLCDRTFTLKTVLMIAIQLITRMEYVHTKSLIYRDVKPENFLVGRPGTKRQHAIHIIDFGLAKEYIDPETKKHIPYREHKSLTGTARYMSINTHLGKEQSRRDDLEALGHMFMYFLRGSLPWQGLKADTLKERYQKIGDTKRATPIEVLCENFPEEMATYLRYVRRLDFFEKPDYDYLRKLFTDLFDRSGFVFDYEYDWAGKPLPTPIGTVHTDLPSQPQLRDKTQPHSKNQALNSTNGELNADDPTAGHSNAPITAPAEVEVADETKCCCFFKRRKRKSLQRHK
Recall that pIC50 is obtained by taking minus log10 of the concentration measured in molar.

{"cpd_smiles": "COc1cnc(-c2cnc3ccccc3c2)nc1-c1cc2c([nH]1)CCNC2=O", "measured_target": "Casein kinase I isoform gamma-2 (Homo sapiens)", "attribute_measured": "pIC50", "observed": 8.10}
{"cpd_smiles": "COc1cnc(COc2ccc(F)cc2)nc1-c1cc2c([nH]1)CCNC2=O", "measured_target": "Casein kinase I isoform gamma-2 (Homo sapiens)", "attribute_measured": "pIC50", "observed": 7.62}
{"cpd_smiles": "COc1cnc(COc2cc(F)c(F)cc2C)cc1-c1cc2c([nH]1)CCNC2=O", "measured_target": "Casein kinase I isoform gamma-2 (Homo sapiens)", "attribute_measured": "pIC50", "observed": 8.40}

Reported pIC50 ( `COc1cnc(Nc2ccccc2)nc1-c1cc2c([nH]1)CCNC2=O` ) = 8.10

Reported pIC50 ( `COc1cnc(COc2ccc(F)c(F)c2)cc1-c1cc2c([nH]1)CCNC2=O` ) = 8.30

Reported pIC50 ( `COc1cnc(COc2ccc(F)cc2)cc1-c1cc2c([nH]1)CCNC2=O` ) = 8.30

Reported pIC50 ( `COc1cnc(COc2ccc(F)cc2F)cc1-c1cc2c([nH]1)CCNC2=O` ) = 8.52

Reported pIC50 ( `COc1cnc(OCc2ccc(F)cc2)nc1-c1cc2c([nH]1)CCNC2=O` ) = 7.10

Reported pIC50 ( `COc1cnc(Oc2ccccc2)nc1-c1cc2c([nH]1)CCNC2=O` ) = 6.07

Reported pIC50 ( `COc1cnc(COc2ccc(F)cc2C)cc1-c1cc2c([nH]1)CCNC2=O` ) = 8.52

Reported pIC50 ( `COc1cnc(CCc2ccc(F)cc2)nc1-c1cc2c([nH]1)CCNC2=O` ) = 7.77

Reported pIC50 ( `COc1cnc(NCc2ccccc2)nc1-c1cc2c([nH]1)CCNC2=O` ) = 7.48

Reported pIC50 ( `COc1cnc(/C=C/c2ccc(F)cc2)nc1-c1cc2c([nH]1)CCNC2=O` ) = 7.30

----------
measured_target: Casein kinase I isoform alpha (Homo sapiens, UniProt P48729)
Sequence (P48729 whole entry, canonical isoform): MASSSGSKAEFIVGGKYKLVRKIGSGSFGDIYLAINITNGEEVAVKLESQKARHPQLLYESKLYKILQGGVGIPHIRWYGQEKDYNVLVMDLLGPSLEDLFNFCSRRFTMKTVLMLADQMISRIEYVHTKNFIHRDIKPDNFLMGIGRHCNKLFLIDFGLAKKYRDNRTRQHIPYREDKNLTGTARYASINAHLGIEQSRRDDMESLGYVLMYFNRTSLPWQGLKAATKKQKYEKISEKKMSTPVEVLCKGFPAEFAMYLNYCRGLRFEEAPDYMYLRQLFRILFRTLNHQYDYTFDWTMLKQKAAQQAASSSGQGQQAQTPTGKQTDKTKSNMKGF
protocol: Inhibition of CK1-alpha using biotin[long chain]-KKRRRAL{pS}VATLPGL substrate in presence of 8 uM ATP
Consider the following compounds and their measured log10 IC50 readings.
Quick note: numbers are log10 of IC50, with nM as the unit.

Use the examples below as a reference point.
{"cpd_smiles": "COc1cnc(COc2ccc(F)cc2F)cc1-c1cc2c([nH]1)CCNC2=O", "attribute_measured": "log10 IC50", "observed": 2.35}
{"cpd_smiles": "COc1cnc(COc2ccc(F)c(F)c2)cc1-c1cc2c([nH]1)CCNC2=O", "attribute_measured": "log10 IC50", "observed": 2.40}
{"cpd_smiles": "COc1cnc(Oc2ccccc2)nc1-c1cc2c([nH]1)CCNC2=O", "attribute_measured": "log10 IC50", "observed": 4.27}
{"cpd_smiles": "COc1cnc(OCc2ccc(F)cc2)nc1-c1cc2c([nH]1)CCNC2=O", "attribute_measured": "log10 IC50", "observed": 1.98}
{"cpd_smiles": "COc1cnc(COc2ccc(F)cc2)nc1-c1cc2c([nH]1)CCNC2=O", "attribute_measured": "log10 IC50", "observed": 2.16}
{"cpd_smiles": "COc1cnc(NCc2ccccc2)nc1-c1cc2c([nH]1)CCNC2=O", "attribute_measured": "log10 IC50", "observed": 1.28}

Result for `COc1cnc(-c2cnc3ccccc3c2)nc1-c1cc2c([nH]1)CCNC2=O` , tested on Casein kinase I isoform alpha (Homo sapiens, UniProt P48729), log10 IC50: 0.95
